molecular target: Interleukin-23 receptor (Homo sapiens); assay: Inhibition of interleukin-23 receptor in human DB cells assessed as reduction in IL-23-stimulated STAT3 phosphorylation incubated for 30 mins by HTRF assay; assay type: cell-based
assay.endpoint: IC50

# smi, assay.endpoint, recorded.result
records = [
    ("CC(=O)N[C@H]1CCSC[C@@H](C(=O)N[C@@H](Cc2ccc(OCCN)cc2)C(=O)N[C@@H](Cc2ccc3ccccc3c2)C(=O)NC2(C(=O)N[C@@H](CCC(=O)O)C(=O)N[C@@H](CC(N)=O)C(=O)N[C@@H](CC(N)=O)C(N)=O)CCNCC2)NC(=O)[C@H](CCC(N)=O)NC(=O)[C@H](Cc2c[nH]c3ccccc23)NC(=O)[C@H]([C@@H](C)O)NC(=O)[C@H](CCC(N)=O)NC1=O", "IC50", "< 10 nM"),
    ("CC(=O)NCCCC[C@H](NC(=O)[C@](C)(CCCCN)NC(=O)[C@H](Cc1ccc2ccccc2c1)NC(=O)[C@H](Cc1ccc(OCCN)cc1)NC(=O)[C@@H]1CSCC[C@H](NC(C)=O)C(=O)N[C@@H](CCC(N)=O)C(=O)N[C@@H]([C@@H](C)O)C(=O)N[C@@H](Cc2c[nH]c3ccccc23)C(=O)N[C@@H](CCC(N)=O)C(=O)N1)C(=O)N[C@@H](CC(=O)NCCCCN)C(=O)NCC(N)=O", "IC50", "25 to 100 nM"),
    ("CC(=O)NCCCC[C@H](NC(=O)[C@](C)(CCCCN)NC(=O)[C@H](Cc1ccc2ccccc2c1)NC(=O)[C@H](Cc1ccc2ccccc2c1)NC(=O)[C@@H]1CSCC[C@H](NC(C)=O)C(=O)N[C@@H](CCC(N)=O)C(=O)N[C@@H]([C@@H](C)O)C(=O)N[C@@H](Cc2c[nH]c3ccccc23)C(=O)N[C@@H](CCC(N)=O)C(=O)N1)C(=O)N[C@@H](CC(N)=O)C(=O)NCC(N)=O", "IC50", "10 to 25 nM"),
]

---

Examples of compounds with documented pIC50 follow.
Biological target: UniProt:Q5VWK5
Sequence (Q5VWK5 whole entry): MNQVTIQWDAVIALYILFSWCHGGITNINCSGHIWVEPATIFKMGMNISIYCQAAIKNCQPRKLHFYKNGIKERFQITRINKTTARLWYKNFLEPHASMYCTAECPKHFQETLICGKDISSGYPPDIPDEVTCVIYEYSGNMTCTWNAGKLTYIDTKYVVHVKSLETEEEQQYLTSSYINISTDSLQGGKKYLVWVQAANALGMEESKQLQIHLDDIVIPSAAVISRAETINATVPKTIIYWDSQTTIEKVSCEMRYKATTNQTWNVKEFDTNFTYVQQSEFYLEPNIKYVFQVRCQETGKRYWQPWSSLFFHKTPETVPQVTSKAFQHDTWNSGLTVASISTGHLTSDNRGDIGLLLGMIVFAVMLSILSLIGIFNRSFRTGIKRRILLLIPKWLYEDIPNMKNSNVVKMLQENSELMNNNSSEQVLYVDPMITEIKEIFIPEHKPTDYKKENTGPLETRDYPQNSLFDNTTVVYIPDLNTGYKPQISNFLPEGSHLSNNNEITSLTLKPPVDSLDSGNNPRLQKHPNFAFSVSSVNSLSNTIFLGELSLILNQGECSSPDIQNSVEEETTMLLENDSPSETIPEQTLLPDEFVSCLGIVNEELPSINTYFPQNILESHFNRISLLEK
Assay: Inhibition of interleukin-23 binding to human interleukin-23 receptor incubated for 2 hrs by competitive binding ELISA
pIC50: −log10 of the molar value. Where a SMILES comes first, the peptide text is derived from it.

# compound, system.tested, pIC50
data = [
    ("CC(C)[C@H](NC(=O)[C@H](Cc1c[nH]c2ccccc12)NC(=O)[C@H](CC(N)=O)NC(=O)[C@H](CO)NC(=O)[C@@H](N)CS)C(=O)N[C@@H](CS)C(=O)N[C@@H](Cc1ccc(O)cc1)C(=O)N[C@@H](Cc1c[nH]c2ccccc12)C(=O)N[C@@H](Cc1cnc[nH]1)C(=O)N[C@H](C(=O)N[C@@H](Cc1ccc(O)cc1)C(=O)NCC(N)=O)[C@@H](C)O (H-CSNWVCYWHTYG-NH2)", "UniProt:Q5VWK5", "> 6.30"),
    ("CC(=O)NC1C/C=C\\CCC(C(=O)N[C@@H](Cc2ccc(O)cc2)C(=O)N[C@@H](Cc2c[nH]c3ccccc23)C(=O)N[C@@H](CCCNC(=N)N)C(=O)N[C@@H](CCCCN)C(=O)N[C@@H](Cc2ccccc2)C(=O)NCC(=O)NCCOCC(=O)N[C@H](CCCCN)C(N)=O)NC(=O)[C@H](CCC(N)=O)NC(=O)[C@H](Cc2c[nH]c3ccccc23)NC(=O)[C@H]([C@@H](C)O)NC(=O)[C@H](CCCNC(=N)N)NC1=O (stereo partly drawn)", "UniProt:Q5VWK5", "6.00 to 7.00"),
    ("CC(=O)N[C@@H](CS)C(=O)N[C@@H](C)C(=O)N[C@@H](CC(=O)O)C(=O)N[C@@H](Cc1c[nH]c2ccccc12)C(=O)N[C@H](C(=O)N[C@@H](CS)C(=O)N[C@@H](Cc1ccc(O)cc1)C(=O)N[C@@H](Cc1c[nH]c2ccccc12)C(=O)N[C@@H](CCCN)C(=O)N[C@@](C)(CC(C)C)C(=O)N[C@@H](Cc1ccccc1)C(=O)NCC(=O)NCCOCC(=O)N[C@H](CCCCN)C(N)=O)C(C)C", "UniProt:Q5VWK5", 5.22),
]
